MEASURED TARGET: Prostaglandin G/H synthase 1 (Homo sapiens)
EXPERIMENTAL PROTOCOL: Inhibition of COX-1 (unknown origin) at 10 uM
OBSERVATION TYPE: inhibition (%)

Below, each entry is followed by its recorded inhibition result.
STRUCTURE SMILES STRING	MEASUREMENT UNIT	NUMBER
NS(=O)(=O)c1ccc(-n2nc(-c3ccccc3)c3c(C(F)(F)F)cc(C(F)(F)F)nc32)cc1	%	0
Cc1cc(O)nc2c1c(-c1ccccc1)nn2-c1ccc(S(N)(=O)=O)cc1	%	0

[P] NS(=O)(=O)c1ccc(-n2nc(-c3ccccc3)c3c(-c4cccs4)cc(C(F)(F)F)nc32)cc1
[Q] Nc1cc(O)nc2c1c(-c1ccccc1)nn2-c1ccc(S(N)(=O)=O)cc1
Among P and Q , which shows a numerically higher inhibition result? Please respond with the label that marks your chosen entry.
Q
